value type: MIC

Enquiry: Lookup: MIC / E. Coli E1 / C/C(=C\C(=O)OC(C)c1ccc(C#N)cc1)CC1OCC(CC2OC2C(C)C(C)O)C(O)C1O (stereo not drawn) [Example 4, 1-(p-Cyanophenyl)ethyl monate A]
Return: > 80 µg/mL

Enquiry: What is its MIC for E. Coli E1? Entry: C/C(=C\C(=O)OCc1cccc(C#N)c1)CC1OCC(CC2OC2C(C)C(C)O)C(O)C1O (stereo not drawn) [Example 2, m-Cyanobenzyl monate A]
Return: 80 µg/mL

Enquiry: API: value(readout=MIC, system=E. Coli E1) for record C/C(=C\C(=O)OCc1cccc(C#N)c1)CC1OCC(C/C=C/C(C)C(C)O)C(O)C1O (stereo not drawn) [Example 5, m-Cyanobenzyl monate C]
Return: > 80 µg/mL

Enquiry: API: value(readout=MIC, system=E. Coli E1) for record C/C(=C\C(=O)OCc1ccc(C#N)cc1)CC1OCC(CC2OC2C(C)C(C)O)C(O)C1O (stereo not drawn) [Example 3, p-Cyanobenzyl monate A]
Return: 80 µg/mL

Enquiry: Value wanted: MIC (E. Coli E1) of entry C/C(=C\C(=O)OCc1ccccc1C#N)CC1OCC(CC2OC2C(C)C(C)O)C(O)C1O (stereo not drawn) [Example 1, o-Cyanobenzyl monate A]
Return: > 80 µg/mL

Enquiry: Form field: MIC recorded for C/C(=C\C(=O)OCc1cc(C#N)cc(C#N)c1)CC1OCC(CC2OC2C(C)C(C)O)C(O)C1O (stereo not drawn) [Example 6, 3,5-Dicyanobenzyl monate A] with E. Coli E1 (enter value)
Return: > 80 µg/mL

====

- System: Strep. pyogenes R80/421-A
- protocol text: Human bacteria MIC
- Assay type: cell-based
- condition parameters: Streptococcus pyogenes, nutrient agar with 5% chocolated horse blood, 18 hours at 37°C
I'd appreciate it if you could supply MIC values for the items below.
The answer is to be given in µg/mL; state only the numeric part.

Enquiry: Dear colleague, I am looking for the recorded MIC of the following molecule: C/C(=C\C(=O)OCc1cc(C#N)cc(C#N)c1)CC1OCC(CC2OC2C(C)C(C)O)C(O)C1O (stereo not shown) [Example 6, 3,5-Dicyanobenzyl monate A]
Return: 1

Enquiry: Item under review: C/C(=C\C(=O)OCc1cccc(C#N)c1)CC1OCC(C/C=C/C(C)C(C)O)C(O)C1O (stereo not shown) [Example 5, m-Cyanobenzyl monate C] . Reported MIC?
Return: 2.5

Enquiry: Recorded MIC for C/C(=C\C(=O)OCc1ccccc1C#N)CC1OCC(CC2OC2C(C)C(C)O)C(O)C1O (stereo not shown) [Example 1, o-Cyanobenzyl monate A] , please?
Return: 0.5

Enquiry: Name the recorded MIC for C/C(=C\C(=O)OCc1ccc(C#N)cc1)CC1OCC(CC2OC2C(C)C(C)O)C(O)C1O (stereo not shown) [Example 3, p-Cyanobenzyl monate A] .
Return: 0.1

====

Provide the reported MIC of each item.
Answer with the value and then the unit.

Enquiry: Look up MIC with M. gallisepticum S6 for this compound: C/C(=C\C(=O)OC(C)c1ccc(C#N)cc1)CC1OCC(CC2OC2C(C)C(C)O)C(O)C1O (stereo not drawn) [Example 4, 1-(p-Cyanophenyl)ethyl monate A]
Return: 10 µg/mL

Enquiry: State its MIC on M. gallisepticum S6: C/C(=C\C(=O)OCc1ccccc1C#N)CC1OCC(CC2OC2C(C)C(C)O)C(O)C1O (stereo not drawn) [Example 1, o-Cyanobenzyl monate A]
Return: 2.5 µg/mL

Enquiry: Please tell me: MIC of C/C(=C\C(=O)OCc1cc(C#N)cc(C#N)c1)CC1OCC(CC2OC2C(C)C(C)O)C(O)C1O (stereo not drawn) [Example 6, 3,5-Dicyanobenzyl monate A] , system M. gallisepticum S6?
Return: 2.5 µg/mL
